Catalogue of IC50 values
Molecular target: progesterone receptor ligand binding domain (GST-tagged PR LBD) (Homo sapiens, UniProt P06401)
Sequence (P06401 679-913 limits assumed): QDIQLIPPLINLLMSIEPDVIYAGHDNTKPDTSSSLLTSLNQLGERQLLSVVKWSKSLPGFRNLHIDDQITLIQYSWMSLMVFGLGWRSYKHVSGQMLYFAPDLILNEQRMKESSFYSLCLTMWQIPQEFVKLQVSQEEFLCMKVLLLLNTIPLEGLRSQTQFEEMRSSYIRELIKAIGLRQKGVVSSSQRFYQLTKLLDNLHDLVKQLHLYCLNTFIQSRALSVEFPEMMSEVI

chemicalString	IC50
Cn1cc(-c2cc(C(C)(C)O)ccc2Oc2cccc(N3CC4(CN(c5ncc(C(=O)N[C@H]6C(C)(C)[C@H](Oc7ccc(C#N)c(Cl)c7)C6(C)C)cn5)CCO4)C3)c2F)c2cc[nH]c2c1=O	50 to 500 nM

Report measured IC50; entry is `Cn1cc(-c2cc(C(C)(C)O)ccc2Oc2ccc(CCCC3CC4(C3)CN(c3ncc(C(=O)N[C@H]5C(C)(C)[C@H](Oc6ccc(C#N)c(Cl)c6)C5(C)C)cn3)C4)cc2)c2cc[nH]c2c1=O`
50 to 500 nM

Read the entry `CCS(=O)(=O)Nc1ccc(Oc2cccc(N(C)CCNC3CCN(c4ncc(C(=O)N[C@H]5C(C)(C)[C@H](Oc6ccc(C#N)c(Cl)c6)C5(C)C)cn4)CC3)c2)c(-c2cn(C)c(=O)c3[nH]ccc23)c1` and write its reported IC50.
50 to 500 nM

// Input: `Cn1cc(-c2cc(C(C)(C)O)ccc2Oc2cccc(OCCN3CCC34CN(c3ncc(C(=O)N[C@H]5C(C)(C)[C@H](Oc6ccc(C#N)c(Cl)c6)C5(C)C)cn3)C4)c2F)c2cc[nH]c2c1=O` . Output its IC50 only.
500 to 2500 nM

Given `CC(C)N(CCOc1cccc(Oc2ccc(C(C)(C)O)cc2-c2cn(C)c(=O)c3[nH]ccc23)c1F)C1CCN(c2ncc(C(=O)N[C@H]3C(C)(C)[C@H](Oc4ccc(C#N)c(Cl)c4)C3(C)C)cn2)CC1` , respond with its IC50.
50 to 500 nM

* * *

Molecular target: BRD4-BD1 (Homo sapiens, UniProt O60885)
Test: Binding affinity to BRD4-BD1 (bromoKdELECT assay)
Details: 11-point 3-fold dilution series
pKd: −log10 of the molar value.
quantityName: pKd

Below, each entry is followed by its recorded pKd result.
compound	measValue
Cn1cc(-c2ccccc2Oc2cccc(OCCOC3CCN(c4ncc(C(=O)N[C@H]5C(C)(C)[C@H](Oc6ccc(C#N)c(Cl)c6)C5(C)C)cn4)CC3)c2)c2cc[nH]c2c1=O	< 5.60
Cn1cc(-c2cc(C(C)(C)O)ccc2Oc2cccc(CCOC3CCN(c4ncc(C(=O)N[C@H]5C(C)(C)[C@H](Oc6ccc(C#N)c(Cl)c6)C5(C)C)cn4)CC3)c2F)c2cc[nH]c2c1=O	< 5.60
Cc1ccc(CCCOC2CCN(c3ncc(C(=O)N[C@H]4C(C)(C)[C@H](Oc5ccc(C#N)c(Cl)c5)C4(C)C)cn3)CC2)c(C)c1Oc1ccc(C(C)(C)O)cc1-c1cn(C)c(=O)c2[nH]ccc12	< 5.60
CCS(=O)(=O)Nc1ccc(Oc2cccc(NCCOC3CCN(c4ncc(C(=O)N[C@H]5C(C)(C)[C@H](Oc6ccc(C#N)c(Cl)c6)C5(C)C)cn4)CC3)c2)c(-c2cn(C)c(=O)c3[nH]ccc23)c1	> 7.30
CN(CCCc1ccc(Oc2ccc(C(C)(C)O)cc2-c2cn(C)c(=O)c3[nH]ccc23)cc1)c1ncc(C(=O)N[C@H]2C(C)(C)[C@H](Oc3ccc(C#N)c(Cl)c3)C2(C)C)cn1	< 5.60
Cn1cc(-c2cc(C(C)(C)O)ccc2Oc2cccc(CCCN3CCN(c4ncc(C(=O)N[C@H]5C(C)(C)[C@H](Oc6ccc(C#N)c(Cl)c6)C5(C)C)cn4)CC3)c2F)c2cc[nH]c2c1=O	6.30 to 7.30
CCS(=O)(=O)Nc1ccc(Oc2cccc(N3CCN(C4CN(c5ncc(C(=O)N[C@H]6C(C)(C)[C@H](Oc7ccc(C#N)c(Cl)c7)C6(C)C)cn5)C4)CC3)c2)c(-c2cn(C)c(=O)c3[nH]ccc23)c1	6.30 to 7.30
Cn1cc(-c2ccccc2Oc2cccc(N3CC(N4CCN(c5ncc(C(=O)N[C@H]6C(C)(C)[C@H](Oc7ccc(C#N)c(Cl)c7)C6(C)C)cn5)CC4)C3)c2F)c2cc[nH]c2c1=O	5.60 to 6.30
CCS(=O)(=O)c1ccc(OC(CCCCN2CCN(c3ncc(C(=O)NC4C(C)(C)C(Oc5ccc(C#N)c(Cl)c5)C4(C)C)cn3)CC2)C2CC2)c(-c2cn(C)c(=O)c3[nH]ccc23)c1 (stereo not drawn)	> 7.30
CN(c1ccc(Oc2ccc(C(C)(C)O)cc2-c2cn(C)c(=O)c3[nH]ccc23)cc1)C1CCN(c2ncc(C(=O)N[C@H]3C(C)(C)[C@H](Oc4ccc(C#N)c(Cl)c4)C3(C)C)cn2)CC1	6.30 to 7.30

Report pKd, nothing else, for this compound: `CCS(=O)(=O)Cc1ccc(Oc2cccc(OCCN3CCN(c4ncc(C(=O)N[C@H]5C(C)(C)[C@H](Oc6ccc(C#N)c(Cl)c6)C5(C)C)cn4)CC3)c2)c(-c2cn(C)c(=O)c3[nH]ccc23)c1`
6.30 to 7.30

Answer with reported pKd of CC(C)c1ccc(Oc2cccc(OCCN3CCN(c4ncc(C(=O)NC5C(C)(C)C(Oc6ccc(C#N)c(Cl)c6)C5(C)C)cn4)CC3)c2)c(-c2cn(C)c(=O)c3[nH]ccc23)c1 (stereo not drawn)
6.30 to 7.30

Give me measured pKd, please, for this compound: `CC(C)N(CC1CCN(c2ncc(C(=O)N[C@H]3C(C)(C)[C@H](Oc4ccc(C#N)c(Cl)c4)C3(C)C)cn2)CC1)[C@H]1C[C@H](Oc2cccc(Oc3ccc(C(C)(C)O)cc3-c3cn(C)c(=O)c4[nH]ccc34)c2F)C1`
> 7.30

# return recorded pKd for input `CCS(=O)(=O)Nc1ccc(Oc2ccc(OCC3CCN(c4ncc(C(=O)N[C@H]5C(C)(C)[C@H](Oc6ccc(C#N)c(Cl)c6)C5(C)C)cn4)CC3)cc2)c(-c2cn(C)c(=O)c3[nH]ccc23)c1`
< 5.60

Return pKd for the following compound: CCS(=O)(=O)Nc1ccc(Oc2cccc(N(C)C3CN(CC4CCN(c5ncc(C(=O)NC6C(C)(C)C(Oc7ccc(C#N)c(Cl)c7)C6(C)C)cn5)CC4)C3)c2)c(-c2cn(C)c(=O)c3[nH]ccc23)c1 (stereo not drawn)
> 7.30

Provide pKd value for the following compound: `CCS(=O)(=O)Nc1ccc(Oc2cccc(OCCOC3CCN(c4ncc(C(=O)N[C@H]5C(C)(C)[C@H](Oc6ccc(C#N)c(Cl)c6)C5(C)C)cn4)CC3)n2)c(-c2cn(C)c(=O)c3[nH]ccc23)c1`
< 5.60

Return the recorded pKd value; entry: `Cn1cc(-c2cc(C(C)(C)O)ccc2Oc2cccc(CCOC3CCN(c4ncc(C(=O)N[C@H]5C(C)(C)[C@H](Oc6ccc(C#N)c(Cl)c6)C5(C)C)cn4)CC3)c2)c2cc[nH]c2c1=O`
< 5.60

Item `CCS(=O)(=O)Nc1ccc(Oc2cccc(OCCOCCOCCOC3CCN(c4ncc(C(=O)N[C@H]5C(C)(C)[C@H](Oc6ccc(C#N)c(Cl)c6)C5(C)C)cn4)CC3)c2)c(-c2cn(C)c(=O)c3[nH]ccc23)c1` : provide pKd
5.60 to 6.30

* * *

Catalogue of pKd readings, one per entry.
Molecular target: BRD4-BD1 (Homo sapiens, UniProt O60885)
Test: Binding affinity to BRD4-BD1 (bromoKdELECT assay)
Details: 11-point 3-fold dilution series
Method: Compounds were tested using a bromoKdELECT assay. T7 phage strains displaying bromodomains were grown in parallel in 24-well blocks in an E. coli host derived from the BL21 strain. […] Kds were determined using an 11-point 3-fold compound dilution series with one DMSO control point. […] The bromodomain concentration in the eluates was measured by qPCR.
pKd: −log10 of the molar value.

Some solved entries appear below for comparison.
chemicalString	quantityName	measValue
CCS(=O)(=O)Nc1ccc(Oc2cccc(N3CC(OC4CCN(c5ncc(C(=O)N[C@H]6C(C)(C)[C@H](Oc7ccc(C#N)c(Cl)c7)C6(C)C)cn5)CC4)C3)c2)c(-c2cn(C)c(=O)c3[nH]ccc23)c1	pKd	6.30 to 7.30
CCS(=O)(=O)Nc1ccc(Oc2cccc(OCCCN3CCN(CCCN(C)c4ncc(C(=O)N[C@H]5C(C)(C)[C@H](Oc6ccc(C#N)c(Cl)c6)C5(C)C)cn4)CC3)c2)c(-c2cn(C)c(=O)c3[nH]ccc23)c1	pKd	6.30 to 7.30
CCS(=O)(=O)Cc1ccc(Oc2cccc(OCCC3CCN(c4ncc(C(=O)N[C@H]5C(C)(C)[C@H](Oc6ccc(C#N)c(Cl)c6)C5(C)C)cn4)CC3)c2)c(-c2cn(C)c(=O)c3[nH]ccc23)c1	pKd	< 5.60
CCS(=O)(=O)Nc1ccc(Oc2cccc(OCCCN3CCN(CCCOC4CCN(c5ncc(C(=O)N[C@H]6C(C)(C)[C@H](Oc7ccc(C#N)c(Cl)c7)C6(C)C)cn5)CC4)CC3)c2)c(-c2cn(C)c(=O)c3[nH]ccc23)c1	pKd	6.30 to 7.30
Cn1cc(-c2cc(C(C)(C)O)ccc2Oc2cccc(OCCN3CCN(c4ncc(C(=O)N[C@H]5C(C)(C)[C@H](Oc6ccc(C#N)c(Cl)c6)C5(C)C)cn4)CC3)c2)c2cc[nH]c2c1=O	pKd	5.60 to 6.30
CCS(=O)(=O)Nc1ccc(Oc2cccc(OCCOC3CCN(c4ncc(C(=O)N[C@H]5C(C)(C)[C@H](Oc6ccc(C#N)c(Cl)c6)C5(C)C)cn4)CC3)c2)c(-c2cn(C)c(=O)c3c2ccn3C)c1	pKd	< 5.60
Cn1cc(-c2cc(C(C)(C)O)ccc2Oc2cccc(N3CC(N4CCN(c5ncc(C(=O)N[C@H]6C(C)(C)[C@H](Oc7ccc(C#N)c(Cl)c7)C6(C)C)cn5)CC4)C3)c2F)c2cc[nH]c2c1=O	pKd	6.30 to 7.30
CCS(=O)(=O)Nc1ccc(Oc2ccc(CCOC3CCN(c4ncc(C(=O)N[C@H]5C(C)(C)[C@H](Oc6ccc(C#N)c(Cl)c6)C5(C)C)cn4)CC3)cc2)c(-c2cn(C)c(=O)c3[nH]ccc23)c1	pKd	6.30 to 7.30

Would you kindly look at the next entry?
For the molecule `CN(c1ccc(Oc2cccc(OCCOC3CCN(c4ncc(C(=O)N[C@H]5C(C)(C)[C@H](Oc6ccc(C#N)c(Cl)c6)C5(C)C)cn4)CC3)c2)c(-c2cn(C)c(=O)c3[nH]ccc23)c1)S(C)(=O)=O` , report pKd.
< 5.60
